Source listed as the Human Domainome abundance scans (Beltran et al. 2025).

B1: Arginine-glutamic acid dipeptide repeats protein, residues 502 to 543; numbered along this chain, Q9P2R6 (parent)
chain: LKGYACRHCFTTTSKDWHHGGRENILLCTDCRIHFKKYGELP

# Variants of: B1
# Assay explanation: abundance fitness (aPCA) (normalised: wild type 0, dead -1); higher = more abundant; growth selection in yeast, the domain comes from the species named
# Applied conditions: Homo sapiens
abundance fitness for assorted variants

>  <Mutations>
D16K

>  <abundance fitness>
-0.154

$$$$
>  <Mutations>
T13C

>  <abundance fitness>
-0.164

$$$$
>  <Mutations>
R32W

>  <abundance fitness>
0.053

$$$$
>  <Mutations>
K36T

>  <abundance fitness>
0.009

$$$$
>  <Mutations>
W17R

>  <abundance fitness>
-0.276

$$$$
>  <Mutations>
T13M

>  <abundance fitness>
-0.185

$$$$
>  <Mutations>
H18S

>  <abundance fitness>
0.004

$$$$
>  <Mutations>
F35A

>  <abundance fitness>
-0.089

$$$$
>  <Mutations>
D30C

>  <abundance fitness>
-0.248

$$$$
>  <Mutations>
W17D

>  <abundance fitness>
-0.197

$$$$
>  <Mutations>
E23R

>  <abundance fitness>
-0.255

$$$$
>  <Mutations>
E40G

>  <abundance fitness>
-0.136

$$$$
>  <Mutations>
T13F

>  <abundance fitness>
-0.179

$$$$
>  <Mutations>
T29D

>  <abundance fitness>
-0.151

$$$$
>  <Mutations>
G3R

>  <abundance fitness>
-0.135

$$$$
>  <Mutations>
Y38P

>  <abundance fitness>
-0.215

$$$$
